# Test Target: Cruzipain (Trypanosoma cruzi, UniProt P25779)
# Sequence (P25779 whole entry): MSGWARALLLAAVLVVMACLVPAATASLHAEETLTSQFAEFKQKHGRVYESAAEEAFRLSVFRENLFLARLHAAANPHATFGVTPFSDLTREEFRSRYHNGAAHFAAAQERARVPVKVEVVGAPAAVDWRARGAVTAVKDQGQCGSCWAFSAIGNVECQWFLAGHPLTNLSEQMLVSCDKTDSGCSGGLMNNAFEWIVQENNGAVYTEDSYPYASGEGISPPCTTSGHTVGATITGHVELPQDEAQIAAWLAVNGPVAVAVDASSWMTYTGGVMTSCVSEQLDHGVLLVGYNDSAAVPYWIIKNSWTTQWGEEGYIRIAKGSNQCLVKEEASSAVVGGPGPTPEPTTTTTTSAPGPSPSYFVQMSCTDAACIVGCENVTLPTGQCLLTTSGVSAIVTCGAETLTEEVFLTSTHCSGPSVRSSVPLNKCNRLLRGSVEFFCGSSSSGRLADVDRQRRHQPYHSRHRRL
# Assay Info: Inhibition of recombinant Trypanosoma cruzi Cruzain expressed in Pichia pastoris using Z-Phe-Arg-AMC substrate incubated for 30 mins by fluorescence based assay
Recorded Endpoint: pIC50
Please report pIC50 as the negative decimal logarithm of the molar concentration, giving only the number.

Q. pIC50 for `CC[C@H](C)[C@@H](C(=O)O[C@@H](CC(C)C)C(=O)N[C@@H](CC(C)C)C(=O)N[C@@H](/C=C/C(=O)N1C(=O)C=C(OC)[C@@H]1Cc1ccccc1)Cc1ccccc1)N(C)C` ?
A. 7.09

Q. pIC50 for `COC1=CC(=O)N(C(=O)/C=C/[C@H](C)NC(=O)[C@H](CC(C)C)NC(=O)[C@H](CC(C)C)OC(=O)[C@H](Cc2ccccc2)N(C)C)[C@H]1Cc1ccccc1` ?
A. 9.14

Q. pIC50 for `COC1=CC(=O)N(C(=O)/C=C/[C@H](Cc2ccccc2)NC(=O)[C@H](CC(C)C)NC(=O)[C@H](CC(C)C)OC(=O)[C@H](Cc2ccccc2)N(C)C)[C@H]1Cc1ccccc1` ?
A. 8.87

Q. pIC50 for `COC1=CC(=O)N(C(=O)/C=C/[C@H](Cc2ccccc2)NC(=O)[C@H](CC(C)C)NC(=O)[C@H](CC(C)C)OC(=O)[C@H](Cc2ccccc2)N(C)C)[C@@H]1Cc1ccccc1` ?
A. 8.43

Q. pIC50 for `COC1=CC(=O)N(C(=O)/C=C/[C@H](Cc2ccccc2)NC(=O)[C@H](CC(C)C)NC(=O)[C@H](CC(C)C)OC(=O)[C@H](C(C)C)N(C)C)[C@H]1CC(C)C` ?
A. 9.60

Q. pIC50 for `COC1=CC(=O)N(C(=O)/C=C/[C@H](Cc2ccccc2)NC(=O)[C@H](CC(C)C)NC(=O)[C@H](CC(C)C)OC(=O)[C@H](Cc2ccccc2)N(C)C)[C@H]1C` ?
A. 8.92

Q. pIC50 for `CC[C@H](C)[C@@H](C(=O)O[C@@H](CC(C)C)C(=O)N[C@@H](CC(C)C)C(=O)N[C@H](/C=C/C(=O)N1C(=O)C=C(OC)[C@@H]1CC(C)C)Cc1ccccc1)N(C)C` ?
A. 8.97

Q. pIC50 for CC[C@H](C)[C@@H](C(=O)O[C@@H](CC(C)C)C(=O)N[C@@H](CC(C)C)C(=O)N[C@@H](C)/C=C/C(=O)N1C(=O)C=C(OC)[C@@H]1C)N(C)C [GALLINAMIDE A] ?
A. 9.59

Q. pIC50 for `CC[C@H](C)[C@@H](C(=O)O[C@@H](CC(C)C)C(=O)N[C@@H](CC(C)C)C(=O)N[C@@H](C)/C=C/C(=O)N1C(=O)C=C(OC)[C@@H]1Cc1ccccc1)N(C)C` ?
A. 9.12

Q. pIC50 for `COC1=CC(=O)N(C(=O)/C=C/[C@H](C)NC(=O)[C@H](CC(C)C)NC(=O)[C@H](CC(C)C)OC(=O)[C@H](C(C)C)N(C)C)[C@H]1C` ?
A. 8.54

Q. pIC50 for `C#CCCCCOC1=CC(=O)N(C(=O)/C=C/[C@H](C)NC(=O)[C@H](CC(C)C)NC(=O)[C@H](CC(C)C)OC(=O)[C@H]([C@@H](C)CC)N(C)C)[C@@H]1C` ?
A. 9.33

Q. pIC50 for `CC[C@H](C)[C@@H](C(=O)O[C@@H](CC(C)C)C(=O)N[C@@H](CC(C)C)C(=O)N[C@@H](C)/C=C/C(=O)N1C(=O)C=C(OC)[C@@H]1CC(C)C)N(C)C` ?
A. 9.31

Q. pIC50 for `CC[C@H](C)[C@@H](C(=O)O[C@@H](CC(C)C)C(=O)N[C@@H](CC(C)C)C(=O)N[C@H](/C=C/C(=O)N1C(=O)C=C(OC)[C@@H]1C)Cc1ccccc1)N(C)C` ?
A. 9.08

The reported measurements were obtained from ChEMBL document CHEMBL4321814.
